From: patent US4866058A

Assay: LD50 value in mice as single injection IP
Details: mouse, in vivo
measured.parameter: LD50

Prompt: Quick one: LD50 for CCOC(=O)C1n2c(=O)n(-c3ccccc3)c(=O)n21 ?
Completion: > 500 mg/kg

* * *

Exercise: for every item that follows, state its recorded Serum Triglyceride.
Test system: serum cholesterol and serum triglyceride levels
Assay: Testing of hyperlipidemic mice (atherogenic diet)
Assay type: in vivo, CF1 male mice
Conditions: hyperlipidemic CF1 mice, 20 mg/kg/d intraperitoneally, Day 12

Reference set, count: 3
CCOC(=O)c1nc(=O)n(-c2ccccc2)c(=O)[nH]1 [Compound N]
46% of Control
O=c1[nH][nH]c(=O)n1-c1ccc(Cl)cc1 [J]
49% of Control
CCOC(=O)C1n2c(=O)n(-c3ccccc3)c(=O)n21 [M]
54% of Control

# ---- query compound ----
Prompt: Quick one: Serum Triglyceride for CC(=O)n1[nH]c(=O)n(-c2ccccc2)c1=O [A] ?
Completion: 40% of Control
